Exercise: state measured melting point for each of the compounds provided.

The cases that follow already have their melting point on record.
Compound	melting point
CCCCC(OC(C)=O)c1ccccc1C(=O)OCCCCCCOC(=O)c1ccccc1-c1ccc(Cn2c(CCC)nc3c(C)cc(-c4nc5ccccc5n4C)cc32)cc1 (centres unmarked)	82 to 83 °C
CCCCC(OC(C)=O)c1ccccc1C(=O)OCCCCOC(=O)c1ccccc1-c1ccc(Cn2c(CCC)nc3c(C)cc(-c4nc5ccccc5n4C)cc32)cc1 (centres unmarked)	83 °C
CCCCC(OC(C)=O)c1ccccc1C(=O)OCCCCCCCCOC(=O)c1ccccc1-c1ccc(Cn2c(CCC)nc3c(C)cc(-c4nc5ccccc5n4C)cc32)cc1 (centres unmarked)	83 to 84 °C
CCCCc1nc(C)c(C(=O)NCCCCCCCCNC(=O)c2ccccc2C(CCCC)OC(C)=O)n1Cc1ccc(-c2ccccc2-c2nnn[nH]2)cc1 (centres unmarked)	197 to 199 °C

Pending compound:
Output measured melting point for this item: CCCCC(OC(C)=O)c1ccccc1C(=O)NCCCCCCCCNC(=O)c1ccccc1-c1ccc(Cn2c(CCC)nc3c(C)cc(-c4nc5ccccc5n4C)cc32)cc1 (centres unmarked)
94 to 95 °C
